From: patent US9695175B2

// values below are pIC50; system is c-Met kinase (1038-1346AA) (Homo sapiens (Human), UniProt P08581)
Sequence (P08581 1038-1346): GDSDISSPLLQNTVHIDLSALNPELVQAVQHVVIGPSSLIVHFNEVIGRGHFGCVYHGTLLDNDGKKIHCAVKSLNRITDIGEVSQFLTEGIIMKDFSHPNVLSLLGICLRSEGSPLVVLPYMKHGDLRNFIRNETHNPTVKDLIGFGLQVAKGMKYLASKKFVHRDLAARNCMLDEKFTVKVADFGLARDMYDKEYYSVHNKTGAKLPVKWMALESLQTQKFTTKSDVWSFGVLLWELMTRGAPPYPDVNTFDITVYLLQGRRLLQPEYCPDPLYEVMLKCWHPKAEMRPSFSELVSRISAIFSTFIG
pIC50: −log10 of the molar value.
VALUE_TYPE: pIC50

CN1CCN(C(=O)c2ccc(-c3ccc4nnc(C(F)(F)c5cc6cn(C)nc6cc5F)n4n3)cc2F)CC1 [Example 27]    6.83

a. Cn1cc2cc(C(F)(F)C3(Cl)NN=C4C=CC(c5cnn(C6CC6)c5)=CN43)c(F)cc2n1 (stereo not shown) [Example 45]
b. Cn1cc2cc(C(F)(F)c3nnc4ccc(-c5ccc(NC(=O)C6CC6)c(F)c5)nn34)c(F)cc2n1 [Example 29]
c. CNC(=O)c1ccc(-c2ccc3nnc(C(F)(F)c4cc5cn(C)nc5cc4F)n3n2)cn1 [Example 31]
Rank order required: pIC50, descending. Arrange the labels as the request states and list them.
b, c, a
(b: 7.53, c: 7.09, a: 6.56)

---

# STUDY_TARGET: c-Met kinase (1038-1346AA) (Homo sapiens (Human))
# ASSAY_NOTES: c-Met in vitro kinase assay (Lance Ultra ULight-TK)
# Type: biochemical
# CONDITION_CONTEXT: c-Met kinase 12.5 nM, ATP 2.5 uM, 30° C.; read-out: c-Met Enzyme IC50
pIC50: −log10 of the molar value.
VALUE_TYPE: pIC50

Cn1cc2cc(C(F)(F)c3nnc4ccc(-c5cncc(Cl)c5)nn34)c(F)cc2n1 [Example 34]    7.27
CC(C)NC(=O)c1ccc(-c2ccc3nnc(C(F)(F)c4ccc5nn(C)cc5c4F)n3n2)cc1F [Example 4]    7.08
CNC(=O)c1ccc(-c2ccc3nnc(C(F)(F)c4cc5cn(C)nc5cc4F)n3n2)cc1F [Example 19]    7.59
O=C(NCCN1CCOCC1)n1cc2cc(C(F)(F)c3nnc4ccc(-c5cnn(C6CC6)c5)nn34)c(F)cc2n1 [Example 51]    5.38
Cn1cc2c(F)c(C(F)(F)c3nnc4ccc(-c5ccc(NC(=O)C6CC6)c(F)c5)nn34)ccc2n1 [Example 7]    7.12

I. Cn1cc2cc(C(F)(F)c3nnc4ccc(-c5ccc(C(=O)N6CCOCC6)c(F)c5)nn34)c(F)cc2n1 [Example 26]
II. CCNC(=O)c1ccc(-c2ccc3nnc(C(F)(F)c4cc5cn(C)nc5cc4F)n3n2)cc1F [Example 22]
Which record would sort first by descending pIC50, I or II ? Mark your answer with the label of the selected entry.
II

---

# STUDY_TARGET: c-Met protein in S114 cells (Homo sapiens (Human), UniProt P08581)
# Sequence (P08581 25-1390): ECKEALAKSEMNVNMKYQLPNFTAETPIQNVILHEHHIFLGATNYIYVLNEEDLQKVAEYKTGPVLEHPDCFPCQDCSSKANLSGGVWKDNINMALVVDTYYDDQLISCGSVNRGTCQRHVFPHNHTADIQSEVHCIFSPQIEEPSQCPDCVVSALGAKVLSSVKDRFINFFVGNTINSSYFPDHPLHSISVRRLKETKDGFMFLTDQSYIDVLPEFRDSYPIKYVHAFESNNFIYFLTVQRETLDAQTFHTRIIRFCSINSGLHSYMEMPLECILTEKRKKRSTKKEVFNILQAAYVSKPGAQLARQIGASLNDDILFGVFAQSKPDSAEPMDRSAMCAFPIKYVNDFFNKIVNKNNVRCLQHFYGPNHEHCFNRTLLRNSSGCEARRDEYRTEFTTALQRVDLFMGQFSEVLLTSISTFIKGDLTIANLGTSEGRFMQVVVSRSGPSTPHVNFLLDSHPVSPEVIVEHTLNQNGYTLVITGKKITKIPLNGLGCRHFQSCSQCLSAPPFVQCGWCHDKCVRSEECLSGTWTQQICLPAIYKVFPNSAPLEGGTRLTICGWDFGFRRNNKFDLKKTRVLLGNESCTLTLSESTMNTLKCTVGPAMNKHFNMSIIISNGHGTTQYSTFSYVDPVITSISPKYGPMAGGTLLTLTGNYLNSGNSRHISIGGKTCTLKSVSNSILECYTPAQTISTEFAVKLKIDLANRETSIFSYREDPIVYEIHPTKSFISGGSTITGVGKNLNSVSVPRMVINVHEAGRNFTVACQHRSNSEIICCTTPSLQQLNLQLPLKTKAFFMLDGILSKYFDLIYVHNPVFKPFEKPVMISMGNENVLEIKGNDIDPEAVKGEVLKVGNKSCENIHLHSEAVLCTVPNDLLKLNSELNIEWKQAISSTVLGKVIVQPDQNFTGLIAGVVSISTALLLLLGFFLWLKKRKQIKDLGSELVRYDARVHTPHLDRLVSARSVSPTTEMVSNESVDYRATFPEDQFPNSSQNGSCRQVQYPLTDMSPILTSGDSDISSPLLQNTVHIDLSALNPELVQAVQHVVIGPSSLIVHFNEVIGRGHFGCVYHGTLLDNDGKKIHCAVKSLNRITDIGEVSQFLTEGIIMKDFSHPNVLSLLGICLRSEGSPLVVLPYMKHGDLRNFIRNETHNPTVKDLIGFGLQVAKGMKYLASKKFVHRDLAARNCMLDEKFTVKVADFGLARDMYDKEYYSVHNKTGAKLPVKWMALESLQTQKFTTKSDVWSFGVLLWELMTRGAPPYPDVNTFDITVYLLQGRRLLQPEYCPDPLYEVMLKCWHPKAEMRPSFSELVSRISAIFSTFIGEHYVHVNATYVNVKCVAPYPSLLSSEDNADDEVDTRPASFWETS
# ASSAY_NOTES: S114 cell-based ELISA, phosphorylation of c-Met protein
# CONDITION_CONTEXT: 30 min compound incubation, phospho-c-Met ELISA
VALUE_TYPE: IC50 (nM)

Example entries begin here.
CNC(=O)c1c(F)cc(-c2ccc3nnc(C(F)(F)c4cc5cn(C)nc5cc4F)n3n2)cc1F [Example 28]    14.2
Cc1cncc(-c2ccc3nnc(C(F)(F)c4cc5cn(C)nc5cc4F)n3n2)c1 [Example 32]    37.7

1. Cn1cc2cc(C(F)(F)c3nnc4ccc(-c5cncc(Cl)c5)nn34)c(F)cc2n1 [Example 34]
2. Cn1cc2cc(C(F)(F)c3nnc4ccc(-c5ccc(NC(=O)C6CC6)c(F)c5)nn34)c(F)cc2n1 [Example 29]
Which of the two items, 1 and 2 , has the greater recorded IC50? Write down the label of the entry you select.
1
(1: 57.6 nM, 2: 7.9 nM)

---

# STUDY_TARGET: c-Met protein in S114 cells (Homo sapiens (Human))
# ASSAY_NOTES: S114 cell-based ELISA, phosphorylation of c-Met protein
# CONDITION_CONTEXT: 30 min compound incubation, phospho-c-Met ELISA
# Description: Cell-Based ELISA [Method] Use ELISA to measure the phosphorylation of c-Met protein in […] cells [Instrument] ENVISION plate reader of PerKinElmer […] [Procedure] […] cells are cultured in DMEM medium (containing 10% FBS). When cells reach 80% confluency, they are collected by trypsinization and centrifugation at 800 rpm for 5 min. The cells are re-suspended in DMEM and adjusted to a density of 500,000 cells/mL. […] Then OD405 is analyzed on an ENVISION plate reader. […]
VALUE_TYPE: IC50 (µM)

A. CNC(=O)c1c(F)cc(-c2ccc3nnc(C(F)(F)c4ccc5nn(C)cc5c4F)n3n2)cc1F [Example 6]
B. Fc1cc2n[nH]cc2cc1C(F)(F)c1nnc2ccc(-c3cnn(C4CC4)c3)nn12 [Example 50]
Lowest IC50? choose A or B // output: label of the selected item
A
(A: 0.0095 µM, B: 0.527 µM)

P. COCCn1cc(-c2ccc3nnc(C(F)(F)c4cc5cn(C)nc5cc4F)n3n2)cn1 [Example 40]
Q. Cn1cc2cc(C(F)(F)c3nnc4ccc(-c5cc(F)c6c(c5)CNC6=O)nn34)c(F)cc2n1 [Example 43]
R. Cn1cc2c(F)c(C(F)(F)c3nnc4ccc(-c5ccc(C(=O)NC6CC6)c(F)c5)nn34)ccc2n1 [Example 5]
Your job: order these 3 records by IC50, ascending. A complete answer lists every label in the requested sequence.
R, Q, P
(R: 0.0232 µM, Q: 0.0352 µM, P: 0.134 µM)
